target: recombinant Human Phosphodiesterase B2 (PDE4B2) (Homo sapiens); assay: Human Phosphodiesterase B2 Alpha Screen Assay; assay type: biochemical; conditions: Alpha Screen cAMP assay
Sequence (Q07343 1-564 isoform Q07343-2): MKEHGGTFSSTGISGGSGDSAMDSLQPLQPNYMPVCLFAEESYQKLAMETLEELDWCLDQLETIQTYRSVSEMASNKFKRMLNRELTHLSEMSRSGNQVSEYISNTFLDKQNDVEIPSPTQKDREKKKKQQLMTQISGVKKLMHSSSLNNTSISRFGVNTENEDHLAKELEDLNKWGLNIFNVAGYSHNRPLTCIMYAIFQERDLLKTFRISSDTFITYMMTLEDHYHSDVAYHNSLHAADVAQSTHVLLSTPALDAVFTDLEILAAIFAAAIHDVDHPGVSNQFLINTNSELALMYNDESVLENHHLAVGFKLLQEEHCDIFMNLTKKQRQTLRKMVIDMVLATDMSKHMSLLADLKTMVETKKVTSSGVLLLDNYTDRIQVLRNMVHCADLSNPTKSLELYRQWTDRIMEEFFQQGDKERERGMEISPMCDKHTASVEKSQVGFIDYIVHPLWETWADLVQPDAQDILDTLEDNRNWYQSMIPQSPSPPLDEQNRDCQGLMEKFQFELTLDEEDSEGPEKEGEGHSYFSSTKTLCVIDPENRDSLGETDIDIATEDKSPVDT
This section presents compounds with their documented IC50 values.
// note: answer is a bare numeric in nM

Use the examples below as a reference point.
[[record]]
compound = "O=C(N[C@H]1CC[C@@H](n2c(=O)c3cc(F)cnc3n(C3CCSCC3)c2=O)CC1)C1CC1 [Example 1]"
assayed_system = "recombinant Human Phosphodiesterase B2 (PDE4B2) (Homo sapiens)"
reported = 4.59

[[record]]
compound = "O=C(N[C@H]1CC[C@@H](n2c(=O)c3cc(F)cnc3n(C3CCSCC3)c2=O)CC1)C(O)c1ccccc1 (relative stereo) [Example 22]"
assayed_system = "recombinant Human Phosphodiesterase B2 (PDE4B2) (Homo sapiens)"
reported = 0.877

[[record]]
compound = "O=C(N[C@H]1CC[C@@H](n2c(=O)c3cc(F)cnc3n(C3CCSCC3)c2=O)CC1)C1CCCCC1 [Example 18]"
assayed_system = "recombinant Human Phosphodiesterase B2 (PDE4B2) (Homo sapiens)"
reported = 2.15


input: Could you tell me which IC50 is on file for Cc1ccc(C(=O)N[C@H]2CC[C@@H](n3c(=O)c4cc(F)cnc4n(C4CCSCC4)c3=O)CC2)c(O)c1 [Example 9] ?
output: 3.75

input: Could you tell me which IC50 is on file for O=C(N[C@H]1CC[C@@H](n2c(=O)c3cc(F)cnc3n(C3CCSCC3)c2=O)CC1)c1ncccc1O [Example 20] ?
output: 5.9

input: Could you tell me which IC50 is on file for Cc1ccc(C(=O)N[C@H]2CC[C@@H](n3c(=O)c4cc(F)cnc4n(C4CCSC4)c3=O)CC2)c(O)c1 (relative stereo) [Example 31] ?
output: 2.75

input: Could you tell me which IC50 is on file for O=C(Cc1cccc(O)c1)N[C@H]1CC[C@@H](n2c(=O)c3cc(F)cnc3n(C3CCSCC3)c2=O)CC1 [Example 8] ?
output: 1.62

Numbers sourced from patent US20090233907A1.
